Assay: protein stability index of a GFP-peptide fusion (GPS, HEK-293T) (PSI 1-6); higher = more stable;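 note: 24-mer peptide tiles fused after GFP, lentivirally expressed, FACS-sorted into six equal bins by GFP/DsRed ratio, decoded by Illumina sequencing, PSI is the read-weighted mean bin number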
Conditions: treatment: DMSO; c terminus: a fixed tail appended
Label rule, in plain words: protein stability index of 4 and up is criterion met, under 4 is criterion not met.

# example entries with known answers
{"construct.sequence": "AVNQEAMNNAQRIEKWVILEKDFS [ACSBG2]", "label.value": "criterion not met"}
{"construct.sequence": "KGEYEVAEGIGSTVFRAILDYYKT [BTBD10]", "label.value": "criterion not met"}
{"construct.sequence": "KLFDDCTQQFKAEKLKEKLKMKER [PPP2R5C]", "label.value": "criterion not met"}
{"construct.sequence": "AKVPRPPSTLLPTPEEQGELEPLK [FOXJ1]", "label.value": "criterion met"}
{"construct.sequence": "YRNLTHNPPSDFSFQNMNSKRKAE [STK38L]", "label.value": "criterion met"}
{"construct.sequence": "VTTHQPTNLVLPSNGSMHNYCPQQ [EDNRA]", "label.value": "criterion not met"}

Reported protein stability index at or above 4? QQLLHHARNGNAEEVRQLLETMAR [OSBPL1A]
criterion not met

Reported protein stability index at or above 4? LKSELGRKWHKASNYIFVAIFWIV [P2RY14]
criterion not met

Reported protein stability index at or above 4? AGGSSSTPTPQALYPDLSCPEGLE [SPSB2]
criterion met

Reported protein stability index at or above 4? FGGQDENKQTLSSGEKYDPDANTW [GAN]
criterion met

Reported protein stability index at or above 4? NEEIRAVGRLKRERSMSENAVRQN [MFF]
criterion met
